- Tested on: serum uric acid
- testSummary: Determination of oral administration: lowering of serum uric acid in mice
- Type: in vivo, ICR male mice
- conditionParameters: Mus musculus; ICR male mice, oral, 1 mg/kg, 2 hours after administration, serum; read-out: Activity of lowering uric acid
Quick reference: inhibition in vivo at 1 mg/kg of the listed items.
Answer format: number, then unit.

Request: I am curious: what inhibition in vivo at 1 mg/kg value has been reported for Cc1ccc(C(=O)c2ccc(-c3nc(C)c(C(=O)O)s3)cc2)c(C)c1 ?
Result: 33%

Request: Suppose we examine the compound Cc1nc(-c2ccc(N(C)C)cc2)sc1C(=O)O ; what inhibition in vivo at 1 mg/kg value has been reported?
Result: 22%

Request: Query (compound): Cc1nc(-c2ccc(OCCN3CCOCC3)c(Cl)c2)sc1C(=O)O ; field requested: inhibition in vivo at 1 mg/kg
Result: 50%

Request: For the compound Cc1nc(-c2ccc([S+]([O-])c3ccc(Cl)cc3)c(Cl)c2)sc1C(=O)O (centres unmarked) , what inhibition in vivo at 1 mg/kg is on record?
Result: 35%

Request: What value of measured inhibition in vivo at 1 mg/kg is listed for CCCCCCOc1ccc(-c2nc(C)c(C(=O)O)s2)cc1[N+](=O)[O-] ?
Result: 92%

Request: Recorded inhibition in vivo at 1 mg/kg of Cc1nc(-c2ccc(OCCC(C)C)c(C#N)c2)sc1C(=O)O , please.
Result: 89%

Request: What measured inhibition in vivo at 1 mg/kg goes with Cc1nc(-c2cccc(C(F)(F)F)c2)sc1C(=O)O ?
Result: 37%

Request: Dear colleague, I am looking for the recorded inhibition in vivo at 1 mg/kg of the following compound: Cc1nc(-c2ccc(N3CCOCC3)c([N+](=O)[O-])c2)sc1C(=O)O
Result: 88%

---

# log10 IC50 per entry for xanthine oxidase (Bos taurus, UniProt P80457)
Plainly stated, the numbers are log10 of IC50 given in nM.

compound | assayEndpoint | valueObserved
Cc1nc(-c2ccc(OCC(C)(C)C)c([N+](=O)[O-])c2)sc1C(=O)O [Example 43] | log10 IC50 | -0.19

Request: Request the reported log10 IC50 associated with Cc1nc(-c2ccc([S+]([O-])c3ccc(Cl)cc3)c(Cl)c2)sc1C(=O)O (stereo not drawn) [Example 62]
Result: -0.19

Request: Please look up its log10 IC50: CCOc1ccc(-c2nc(C)c(C(=O)O)s2)cc1[N+](=O)[O-] [Example 33]
Result: -0.44

Request: What value of measured log10 IC50 is listed for Cc1nc(-c2cc(Cl)c(OC(C)C)c(Cl)c2)sc1C(=O)O [Example 68] ?
Result: 0.34

Request: Which log10 IC50 value is on record for Cc1nc(-c2ccc(SC(C)C)c([N+](=O)[O-])c2)sc1C(=O)O [Example 35] ?
Result: -0.52

Request: Looking for the measured log10 IC50 of Cc1nc(-c2ccc(OCC3CCCCC3)c([N+](=O)[O-])c2)sc1C(=O)O [Example 32] , can you help?
Result: -0.74

Request: # input compound: Cc1nc(-c2ccc(C(=O)N(C)c3ccc(Cl)cc3)cc2)sc1C(=O)O [Example 17] ; wanted: its log10 IC50
Result: 2.70

Request: Quick one: log10 IC50 of Cc1nc(-c2cccc([N+](=O)[O-])c2)sc1C(=O)O [Example 3] ?
Result: 1.15

Request: Could you tell me which log10 IC50 is on file for Cc1nc(-c2ccc(OCc3ccc(F)cc3)c(Cl)c2)sc1C(=O)O [Example 58] ?
Result: 0.53

---

xanthine oxidase (Bos taurus, UniProt P80457) IC50 data
Sequence (P80457 whole entry): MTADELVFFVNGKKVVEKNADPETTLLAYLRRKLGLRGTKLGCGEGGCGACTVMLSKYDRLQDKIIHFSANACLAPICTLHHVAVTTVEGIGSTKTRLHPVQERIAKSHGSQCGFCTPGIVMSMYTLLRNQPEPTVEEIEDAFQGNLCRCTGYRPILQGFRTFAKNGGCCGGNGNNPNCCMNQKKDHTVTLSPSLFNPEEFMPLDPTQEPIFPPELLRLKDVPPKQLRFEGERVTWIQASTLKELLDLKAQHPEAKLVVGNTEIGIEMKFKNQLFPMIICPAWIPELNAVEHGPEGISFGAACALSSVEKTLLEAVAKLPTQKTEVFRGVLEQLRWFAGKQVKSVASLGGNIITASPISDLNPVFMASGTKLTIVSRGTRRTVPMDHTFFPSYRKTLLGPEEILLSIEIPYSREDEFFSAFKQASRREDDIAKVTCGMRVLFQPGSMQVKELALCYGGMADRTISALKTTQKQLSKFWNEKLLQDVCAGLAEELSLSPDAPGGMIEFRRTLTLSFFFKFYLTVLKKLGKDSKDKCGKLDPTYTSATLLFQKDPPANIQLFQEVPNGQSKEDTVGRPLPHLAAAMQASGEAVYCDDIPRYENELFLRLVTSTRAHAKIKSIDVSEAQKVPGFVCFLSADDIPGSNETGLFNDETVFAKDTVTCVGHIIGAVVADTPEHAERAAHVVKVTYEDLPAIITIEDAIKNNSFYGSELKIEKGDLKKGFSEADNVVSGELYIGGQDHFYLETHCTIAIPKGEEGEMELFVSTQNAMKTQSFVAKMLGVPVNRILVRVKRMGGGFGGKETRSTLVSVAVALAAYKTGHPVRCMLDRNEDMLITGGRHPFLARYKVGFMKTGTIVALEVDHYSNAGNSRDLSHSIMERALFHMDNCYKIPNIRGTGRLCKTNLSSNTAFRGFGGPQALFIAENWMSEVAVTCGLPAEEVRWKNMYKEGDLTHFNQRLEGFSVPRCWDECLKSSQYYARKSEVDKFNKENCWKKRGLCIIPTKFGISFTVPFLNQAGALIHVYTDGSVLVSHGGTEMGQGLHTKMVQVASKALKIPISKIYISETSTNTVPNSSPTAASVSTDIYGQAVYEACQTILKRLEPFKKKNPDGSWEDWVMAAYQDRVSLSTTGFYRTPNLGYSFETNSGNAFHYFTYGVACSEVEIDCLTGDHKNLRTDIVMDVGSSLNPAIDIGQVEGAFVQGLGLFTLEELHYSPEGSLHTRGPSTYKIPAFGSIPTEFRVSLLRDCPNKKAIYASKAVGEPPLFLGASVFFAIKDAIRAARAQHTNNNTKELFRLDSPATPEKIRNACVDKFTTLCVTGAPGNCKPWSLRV
Please respond with the number in µM and leave the unit unwritten.

Field: example entries. Status: answers known.
structureAsSmiles | targetSystem | unitsLabel | IC50
Cc1nc(-c2ccc(OCCCCC(=O)O)cc2)sc1C(=O)O | xanthine oxidase (Bos taurus, UniProt P80457) | µM | 0.012
Cc1nc(-c2ccc(OCc3ccc(Cl)cc3)cc2)sc1C(=O)O | xanthine oxidase (Bos taurus, UniProt P80457) | µM | 0.017

Please find the next compound below.
Request: # returns recorded IC50 (system: xanthine oxidase (Bos taurus, UniProt P80457)) for Cc1nc(-c2cccc(C(=O)c3ccccc3)c2)sc1C(=O)O
Result: 0.012

---

// values below are reported inhibition in vivo at 1 mg/kg
- Tested on: serum uric acid
- testSummary: Determination of oral administration: lowering of serum uric acid in mice
- Format: in vivo, ICR male mice
- conditionParameters: Mus musculus; ICR male mice, oral, 1 mg/kg, 2 hours after administration, serum; read-out: Activity of lowering uric acid
Note: a bare number is incomplete; add the unit.

Reference set, count: 4
structureAsSmiles | valueObserved
Cc1nc(-c2ccc(N3CCCCC3)c(C#N)c2)sc1C(=O)O | 93%
Cc1nc(-c2ccc(OCC(C)(C)C)c(C(F)(F)F)c2)sc1C(=O)O | 80%
Cc1nc(-c2ccc(C(=O)c3ccccc3)cc2)sc1C(=O)O | 18%
Cc1nc(-c2ccc(OCC(C)(C)C)c([N+](=O)[O-])c2)sc1C(=O)O | 85%

--- query ---
Request: Requested read-out: inhibition in vivo at 1 mg/kg. Entry: Cc1nc(-c2ccc(OCC(C)C)c(F)c2)sc1C(=O)O
Result: 50%

---

- Test system: serum uric acid
- testSummary: Determination of oral administration: lowering of serum uric acid in mice
- Assay type: in vivo, ICR male mice
- conditionParameters: Mus musculus; ICR male mice, oral, 1 mg/kg, 2 hours after administration, serum; read-out: Activity of lowering uric acid
Label true when inhibition in vivo at 1 mg/kg is at or above 50%; otherwise label false.

Some solved entries appear below for comparison.
structureAsSmiles | targetSystem | labelValue
Cc1nc(-c2ccc(OCC(C)(C)C)c(C#N)c2)sc1C(=O)O | serum uric acid | true
CCOCCOc1ccc(-c2nc(C)c(C(=O)O)s2)cc1Br | serum uric acid | false
Cc1nc(-c2ccc(OC(C)C)c([N+](=O)[O-])c2)sc1C(=O)OC(C)C | serum uric acid | true
Cc1nc(-c2ccc(Sc3ccc(Cl)cc3)c(Br)c2)sc1C(=O)O | serum uric acid | false
Cc1nc(-c2ccc(OCC(C)C)c(Cl)c2)sc1C(=O)O | serum uric acid | true
Cc1nc(-c2ccc(N3CCOCC3)c(C#N)c2)sc1C(=O)O | serum uric acid | true
CCOCCOc1ccc(-c2nc(C)c(C(=O)O)s2)cc1Cl | serum uric acid | false
Cc1nc(-c2ccc(OCCC(C)C)c(Cl)c2)sc1C(=O)O | serum uric acid | false
Cc1nc(-c2ccc(OC(C)C)c([N+](=O)[O-])c2)sc1C(=O)O | serum uric acid | true
Cc1nc(-c2ccc(OCc3ccc(F)cc3)c(Cl)c2)sc1C(=O)O | serum uric acid | false

Request: Threshold query (inhibition in vivo at 1 mg/kg >= 50%) on Cc1nc(-c2cc(C(F)(F)F)cc(C(F)(F)F)c2)sc1C(=O)O
Result: true

Request: Textbook exercise: given the entry Cc1nc(-c2ccc(Sc3ccc(Cl)cc3)c([N+](=O)[O-])c2)sc1C(=O)O , state whether its inhibition in vivo at 1 mg/kg is greater than or equal to 50%.
Result: false
